Task for the reader: assign each of the following compounds its reported pEC50.
Target: Cannabinoid receptor 2 (Homo sapiens, UniProt P34972)
Sequence (P34972 whole entry): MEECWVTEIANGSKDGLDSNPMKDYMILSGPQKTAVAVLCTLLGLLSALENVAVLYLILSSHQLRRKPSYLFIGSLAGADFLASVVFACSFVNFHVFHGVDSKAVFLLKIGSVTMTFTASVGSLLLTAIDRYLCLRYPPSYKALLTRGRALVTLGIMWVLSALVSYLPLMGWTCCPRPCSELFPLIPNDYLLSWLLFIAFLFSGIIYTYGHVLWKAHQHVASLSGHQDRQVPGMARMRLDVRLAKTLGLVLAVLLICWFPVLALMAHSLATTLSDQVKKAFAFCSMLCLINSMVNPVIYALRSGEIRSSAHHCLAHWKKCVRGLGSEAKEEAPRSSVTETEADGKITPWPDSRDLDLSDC
Experiment: Agonist activity at CB2R (unknown origin) CHO cells stably expressing Galpha16 assessed as increase in intracellular calcium level by microplate reader based assay
Assay type: functional, cell-based
Conditions: read-out: EC50
# pEC50 = -log10(concentration in molar units)

// query pEC50 value for entry CCCCN1C(=O)/C(=C/NC(C)(C)CC)C(=O)c2cccc(C)c21 7.12

// query pEC50 value for entry CCCCN1C(=O)/C(=C/NN2CCCCC2)C(=O)c2cccc(C)c21 6.00

// query pEC50 value for entry CCCN1C(=O)/C(=C/NC(C)(C)C)C(=O)c2cccc(C)c21 7.44

// query pEC50 value for entry CCCCN1C(=O)/C(=C/NC2CCCCC2)C(=O)c2cccc(CC)c21 6.10

// query pEC50 value for entry CCCCN1C(=O)/C(=C/NC23CC4CC(CC(C4)C2)C3)C(=O)c2cccc(C)c21 6.50

// query pEC50 value for entry Cc1cccc2c1N(CC1CC1)C(=O)/C(=C/NC(C)(C)C)C2=O 6.98

// query pEC50 value for entry CCCCN1C(=O)/C(=C/Nc2ccccn2)C(=O)c2cccc(C)c21 5.62

###

Task for the reader: assign each of the following compounds its reported pEC50.
Target: Cannabinoid receptor 2 (Homo sapiens, UniProt P34972)
Experiment: Agonist activity at CB2R (unknown origin) CHO cells stably expressing Galpha16 assessed as increase in intracellular calcium level by microplate reader based assay
Format: functional, cell-based
Conditions: read-out: EC50
# pEC50 = -log10(concentration in molar units)

Tell me reported pEC50 for CCCCN1C(=O)/C(=C/NC2CCCCC2)C(=O)c2cccc(C)c21 , tested with Cannabinoid receptor 2 (Homo sapiens, UniProt P34972). 7.03

Tell me reported pEC50 for CCCCN1C(=O)/C(=C/NC2CCCCC2)C(=O)c2ccccc21 , tested with Cannabinoid receptor 2 (Homo sapiens, UniProt P34972). 5.80

Tell me reported pEC50 for C=CCCN1C(=O)/C(=C/NC(C)(C)C)C(=O)c2cccc(C)c21 , tested with Cannabinoid receptor 2 (Homo sapiens, UniProt P34972). 7.12

Tell me reported pEC50 for CCCCN/C=C1\C(=O)c2cccc(C)c2N(CCCC)C1=O , tested with Cannabinoid receptor 2 (Homo sapiens, UniProt P34972). 7.04

Tell me reported pEC50 for Cc1cccc2c1N(CC1CC1)C(=O)/C(=C/NC1CCCCC1)C2=O , tested with Cannabinoid receptor 2 (Homo sapiens, UniProt P34972). 6.17

Tell me reported pEC50 for CCCCN1C(=O)/C(=C/NCC2CC2)C(=O)c2cccc(C)c21 , tested with Cannabinoid receptor 2 (Homo sapiens, UniProt P34972). 6.90

Tell me reported pEC50 for CCCCN1C(=O)/C(=C/NCC(C)C)C(=O)c2cccc(C)c21 , tested with Cannabinoid receptor 2 (Homo sapiens, UniProt P34972). 7.35

Tell me reported pEC50 for C=CCCN1C(=O)/C(=C/NC2CCCCC2)C(=O)c2cccc(C)c21 , tested with Cannabinoid receptor 2 (Homo sapiens, UniProt P34972). 6.13

Tell me reported pEC50 for CCCCCN1C(=O)/C(=C/NC2CCCCC2)C(=O)c2cccc(C)c21 , tested with Cannabinoid receptor 2 (Homo sapiens, UniProt P34972). 6.49

###

Target: Cannabinoid receptor 2 (Homo sapiens)
Assay: Agonist activity at CB2R (unknown origin) CHO cells stably expressing Galpha16 assessed as increase in intracellular calcium level by microplate reader based assay relative to CP55940
Assay type: functional, cell-based
With a cut-off of 90%, any Emax strictly below it is called rule met; any Emax meeting it or above is called rule not met.

Does CCCCN1C(=O)/C(=C/NC(C)(C)C)C(=O)c2cccc(C)c21 have Emax strictly under 90%? rule not met

Does CCCCN1C(=O)/C(=C/NC(C)C(C)C)C(=O)c2cccc(C)c21 (stereo unspecified) have Emax strictly under 90%? rule not met

Does CCCCN1C(=O)/C(=C/NC2CCCCC2)C(=O)c2cccc(CC)c21 have Emax strictly under 90%? rule met

Does CCCCN1C(=O)/C(=C/NN2CCCCC2)C(=O)c2cccc(C)c21 have Emax strictly under 90%? rule met

Does CCCCCN1C(=O)/C(=C/NC2CCCCC2)C(=O)c2ccccc21 have Emax strictly under 90%? rule not met

Does CCCN1C(=O)/C(=C/NC2CCCCC2)C(=O)c2cccc(C)c21 have Emax strictly under 90%? rule met

Does CCCCN1C(=O)/C(=C/NC2CCCC2)C(=O)c2cccc(C)c21 have Emax strictly under 90%? rule not met

Does CCCCN1C(=O)/C(=C/NC2CCCCC2)C(=O)c2ccccc21 have Emax strictly under 90%? rule not met

Does CCCCN1C(=O)/C(=C/NC(C)(C)CC)C(=O)c2cccc(C)c21 have Emax strictly under 90%? rule not met

Does CCCCN1C(=O)/C(=C/Nc2ccccn2)C(=O)c2cccc(C)c21 have Emax strictly under 90%? rule met

Does CCCCN/C=C1\C(=O)c2cccc(C)c2N(CCCC)C1=O have Emax strictly under 90%? rule met

Does Cc1cccc2c1N(CC1CC1)C(=O)/C(=C/NC(C)(C)C)C2=O have Emax strictly under 90%? rule not met

Does CCN1C(=O)/C(=C/NC2CCCCC2)C(=O)c2cccc(C)c21 have Emax strictly under 90%? rule not met

Does CCCCN1C(=O)/C(=C/NC23CC4CC(CC(C4)C2)C3)C(=O)c2cccc(C)c21 have Emax strictly under 90%? rule not met

Does CCCCN1C(=O)/C(=C/NCC2CC2)C(=O)c2cccc(C)c21 have Emax strictly under 90%? rule met

Does CCCCN1C(=O)/C(=C/NC2CCCCC2)C(=O)c2cccc(C)c21 have Emax strictly under 90%? rule not met

Does CCCCN1C(=O)/C(=C/NC2CCCCC2)C(=O)c2cccc(OC)c21 have Emax strictly under 90%? rule met

Does Cc1cccc2c1N(CC1CC1)C(=O)/C(=C/NC1CCCCC1)C2=O have Emax strictly under 90%? rule not met

Does CCCCN1C(=O)/C(=C/NC2CCCCC2)C(=O)c2c(C)cccc21 have Emax strictly under 90%? rule not met
